pIC50 listing for selected compounds.
Target: human DGKζ (Homo sapiens (Human), UniProt Q13574)
Sequence (Q13574 other isoform, or with tags, fused parts or gaps): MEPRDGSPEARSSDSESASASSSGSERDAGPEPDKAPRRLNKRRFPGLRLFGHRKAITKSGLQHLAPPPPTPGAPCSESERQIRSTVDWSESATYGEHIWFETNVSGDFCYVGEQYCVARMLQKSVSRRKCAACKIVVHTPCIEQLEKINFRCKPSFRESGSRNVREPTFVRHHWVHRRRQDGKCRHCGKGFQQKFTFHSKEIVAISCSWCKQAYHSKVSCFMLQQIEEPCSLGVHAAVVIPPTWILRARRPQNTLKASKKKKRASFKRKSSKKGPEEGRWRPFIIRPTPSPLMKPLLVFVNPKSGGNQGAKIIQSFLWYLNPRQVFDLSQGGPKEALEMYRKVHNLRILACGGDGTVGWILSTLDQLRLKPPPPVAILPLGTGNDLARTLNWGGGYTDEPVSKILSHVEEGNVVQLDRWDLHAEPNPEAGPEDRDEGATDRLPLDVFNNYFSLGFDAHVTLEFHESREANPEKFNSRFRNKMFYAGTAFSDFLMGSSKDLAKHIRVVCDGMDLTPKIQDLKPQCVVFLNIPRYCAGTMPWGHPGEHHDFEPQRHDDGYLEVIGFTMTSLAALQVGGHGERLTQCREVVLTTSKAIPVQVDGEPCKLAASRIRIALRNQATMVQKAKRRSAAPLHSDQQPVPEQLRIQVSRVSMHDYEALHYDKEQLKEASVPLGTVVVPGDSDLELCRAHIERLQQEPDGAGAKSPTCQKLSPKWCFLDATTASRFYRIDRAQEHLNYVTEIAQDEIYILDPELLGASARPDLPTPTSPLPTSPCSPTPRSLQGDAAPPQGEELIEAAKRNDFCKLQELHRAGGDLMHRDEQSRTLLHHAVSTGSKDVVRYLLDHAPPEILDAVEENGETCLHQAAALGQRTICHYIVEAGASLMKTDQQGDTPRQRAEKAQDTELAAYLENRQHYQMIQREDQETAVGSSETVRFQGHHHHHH
Assay: DGKζ assay (detergent/lipid micelle substrate)
Format: biochemical
Conditions: detergent/lipid micelle substrate; read-out: DGKζ IC50
Protocol: The DGKα and DGKζ reactions were performed using either extruded liposome (DGKα and DGKζ LIPGLO assays) or detergent/lipid micelle substrate (DGKα and DGKζ assays). […] The compound inhibition studies were carried out as follows: 50 nL droplets of each test compound (top concentration 10 mM with 11 point, 3-fold dilution series for each compound) solubilized in DMSO were transferred to wells of a white 1536 well plate (Corning 3725). […] Luminescence was recorded using an EnVision microplate reader. […]
pIC50: −log10 of the molar value.
metric_name: pIC50

compound=Cn1c(=O)c(C#N)c(N2CCN(Cc3ccc(Cl)cc3O)CC2)c2nc(C#N)ccc21 inequality_sign== data_value=4.59
compound=C#CCn1c(=O)c(C#N)c(N2CCN(C(c3ccc(F)cc3)c3ccc(F)cc3)CC2)c2nc(Br)ccc21 inequality_sign== data_value=4.85
compound=Cc1ccc2c(n1)c(N1CCN(C(c3ccc(F)cc3)c3ccc(F)cc3)CC1)c(C(=O)C(F)(F)F)c(=O)n2C inequality_sign=< data_value=3.62
compound="C#CCn1c(=O)c([N+](=O)[O-])c(N2CCN(C(c3ccc(F)cc3)c3ccccc3OC)CC2)c2nc(C#N)ccc21 (single isomer, unassigned) [Example 131]" inequality_sign== data_value=6.43
compound=Cn1c(=O)c(C#N)c(N2CCN(Cc3c(O)cccc3Cl)CC2)c2nc(Cl)ccc21 inequality_sign=< data_value=3.62
compound="Cn1c(=O)c([N+](=O)[O-])c(N2CCN(C(c3ccccc3)c3ccccc3O)CC2)c2nc(Br)ccc21 (single isomer, unassigned) [Example 79]" inequality_sign=< data_value=4.09
compound="COCCn1c(=O)c(C#N)c(N2CCN(C(c3ccc(F)cc3)c3ccc(F)cc3OC)CC2)c2nc(Br)ccc21 (racemic) [Example 114]" inequality_sign== data_value=4.00
compound=Cn1c(=O)c(C#N)c(N2CCN(Cc3cc(O)cc(F)c3)CC2)c2nc(Cl)ccc21 inequality_sign=< data_value=3.62
compound=Cc1ccc2c(n1)c(N1CCN(Cc3cc(OC(F)(F)F)ccc3O)CC1)c(C#N)c(=O)n2C inequality_sign=< data_value=3.62
compound=Cc1cccc(CN2CCN(c3c(C#N)c(=O)n(C)c4ccc(Cl)nc34)CC2)c1O inequality_sign== data_value=4.44
compound="COc1ccccc1C(c1ccc(F)cc1)N1CCN(c2c(C#N)c(=O)n(CC3CC3)c3ccc(Br)nc23)CC1 (single isomer, unassigned) [Example 159]" inequality_sign=< data_value=3.62
compound="CCC(c1ccc(F)cc1)N1CCN(c2c(C#N)c(=O)n(CC#N)c3ccc(Br)nc23)CC1 (centres unmarked)" inequality_sign== data_value=3.64
compound=COc1ccc(CN2CCN(c3c(C#N)c(=O)n(C)c4ccc(Cl)nc34)CC2)cc1F inequality_sign== data_value=4.25
compound=Cn1c(=O)c(C#N)c(N2CCN(Cc3ccc(C(C)(C)C)cc3O)CC2)c2nc(Cl)ccc21 inequality_sign=< data_value=3.62

----------
tested on: Jurkat AP1-luciferase Reporter; assay: DGK AP1-Reporter Assay; assay type: cell-based; conditions: Homo sapiens, Jurkat, read-out: API-Luciferase Reporter IC50, Table 3
pIC50: −log10 of the molar value.
Response key: Satisfied means pIC50 >= 6; Not satisfied means pIC50 < 6.

molecule=Cn1c(=O)c(C#N)c(N2CCN(Cc3cccc4c3NC(=O)C4)CC2)c2nc(Cl)ccc21 target_or_test_system="Jurkat AP1-luciferase Reporter" category_label="Not satisfied"
molecule="C#CCn1c(=O)c([N+](=O)[O-])c(N2CCN(C(C)c3ccc(F)cc3)CC2)c2nc(C#N)ccc21 (racemic) [Example 135]" target_or_test_system="Jurkat AP1-luciferase Reporter" category_label=Satisfied
molecule="CCC(c1ccc(F)cc1)N1CCN(c2c([N+](=O)[O-])c(=O)n(C)c3ccc(C#N)nc23)CC1 (racemic)" target_or_test_system="Jurkat AP1-luciferase Reporter" category_label=Satisfied
molecule="COc1ccccc1C(c1ccc(F)cc1)N1CCN(c2c(C#N)c(=O)n(C)c3ccc(Br)nc23)CC1 (stereo not shown) [Example 12]" target_or_test_system="Jurkat AP1-luciferase Reporter" category_label=Satisfied
molecule=Cn1c(=O)c(C#N)c(N2CCN(Cc3ccc(O)cc3)CC2)c2nc(Cl)ccc21 target_or_test_system="Jurkat AP1-luciferase Reporter" category_label="Not satisfied"
molecule="COCCn1c(=O)c([N+](=O)[O-])c(N2CCN(C3CCc4ccc(OC)cc43)CC2)c2nc(C#N)ccc21 (stereo not shown)" target_or_test_system="Jurkat AP1-luciferase Reporter" category_label="Not satisfied"
molecule="Cn1c(=O)c(C#N)c(N2CCN(C(c3ccc(F)cc3)c3ccccc3O)CC2)c2nc(C#N)ccc21 (stereo not shown)" target_or_test_system="Jurkat AP1-luciferase Reporter" category_label=Satisfied
